Target: full-length human GLP1R on HEK293/CRE-Luc/hGLP1R cells (human, UniProt P43220 24-463)
Assay: cell-based or functional assay
Listing of entries alongside the reported CRE-luc Relative Potency (% M2361 EC50).

binder	CRE-luc Relative Potency (% M2361 EC50) [%]
XXGTXTSDXX (CapAib-E*-G-T-F*-T-S-D-AA2-AA1: CapAib = 3-((2-(1H-imidazol-5-yl)ethyl)amino)-2,2-dimethyl-3-oxopropanoic acid; E* = (S)-2-amino-3-(2H-tetrazol-5-yl)propanoic acid; F* = (S)-2-amino-3-(2-fluorophenyl)-2-methylpropanoic acid; AA2 = biphenylalanine derivative carrying the amino-PEG8-triazole linker; AA1 = (S)-2-amino-5-(3,5-dimethylphenyl)pentanamide) [GLP1R agonist linker-payload LP11 (NH2-PEG8-triazole-P8)]	44
REGN8072-M3190 (antibody, human IgG4 S228P, kappa, V domains shown, linker-payload M3190 (LP11) on Gln 3 of the N-terminal Q-tag LLQGSG, antibody-tethered drug conjugate; also called REGN8072 ATDC; anti-GLP1R mAb4-LP11) VH: QVQLVESGGGVVQPARSLRLSCAASGFAFSRSAMHWVRQAPGKGLEWVAVISYDGSNKYYTDSVKGRFTISRDNSKNTLYLQMNTLRAEDTALYYCAKMYTTMDSFDYWGQGTLVTVSS VL: DIQLTQSPSFLSASVGDRVTITCWASQGISSYLAWYQQKPGKAPKLLIYAASTLQSGVPSRFSGSGSGTEFTLTISSLQPEDFALYYCQQLNSYPRTFGQGTKVEIKR	18.6
REGN9278-M3190 (antibody, human IgG4 S228P, kappa, V domains shown, linker-payload M3190 (LP11) on Gln 3 of the N-terminal Q-tag LLQGSG, antibody-tethered drug conjugate; also called REGN9278 ATDC) VH: QVQLQQWGAGLLKPSETLSLTCAVYGGSFSGYYWSWIRQPPGKGLEWIGEINHAGSTNYNPSLKSRITISVDTSKNQFSLKLSSVTAADTAVYYCARGWYYGSGSYHRNWFDPWGQGTLVTVSS VL: EIVLTQSPGTLSLSPGERATLSCRASQSVYYSYLAWYQQKPGQAPRLLIYGASNRATGIPDRFSGSGSGTDFTLTISRLEPEDFAVYYCQQYGNSPWTFGQGTKVEIKR	4.3
REGN7988-M3190 (antibody, human IgG4 S228P, kappa, V domains shown, linker-payload M3190 (LP11) on Gln 3 of the N-terminal Q-tag LLQGSG) VH: QVQLVESGGGVVQPGRSLRLSCAASGFTFSGYGIHWVRQAPGKGLVWVAVIWYDGSFKYYADSVKGRFTISRDNSKNTLYLQMNSLRAEDTAVYYCARGDSSSSGRYYYYGMDVWGQGTTVTVSS VL: DIQMTQSPSSLSASVGDRVTITCRASQGIRNDLGWYQQKPGTAPKRLIFAASSLQSGVPSRFSGSGSGTEFTLTISSLQPEDFATYYCLQHNNYPPTFGGGTKVEIKR	15.1
REGN8070-M3190 (antibody, human IgG4 S228P, kappa, V domains shown, linker-payload M3190 (LP11) on Gln 3 of the N-terminal Q-tag LLQGSG, antibody-tethered drug conjugate; also called REGN8070 ATDC) VH: QVQLVESGGGVGQPGRSLRLSCAASGFTFSRNAMHWVRQAPGKGLEWVAVISYDGSNKHYADSVKGRFTISRDNSKNTLYLEMNSLRVEDTAVYYCAKGGIPFDYWGQGTLVTVSS VL: DIVMTQSPLSSPVTLGQPASISCRSSQSLVHFDGNTYLSWLHQRPGQPPRLLIYKISNRFSGVPDRFSGSGAGTDFTLKISRVEPEDVGVYYCMHATQFPYTFGQGTKLEIKR	16.5
